- targetUnderTest: Leukotriene B4 receptor (Cavia porcellus)
- protocol: Inhibition of [3H]LTB4 binding to Leukotriene B4 receptor in the guinea pig spleen membranes
The threshold is 400 nM. Values of IC50 beneath it are tagged TRUE; values meeting or exceeding it are tagged FALSE.

{"columns": ["molecule", "assignedLabel"],
 "data": [
  ["O=C(O)CCCCCOc1cc(-c2ccccc2)c2ccccc2n1", "FALSE"],
  ["CC(C)(CCCCOc1cc(-c2cccc(Cl)c2)c2ccccc2n1)C(=O)O", "FALSE"],
  ["Cc1ccc(-c2cc(OCCCCC(C)(C)C(=O)O)nc3ccccc23)cc1", "TRUE"],
  ["CC(C)(CCCCOc1cc(-c2ccc([N+](=O)[O-])cc2)c2ccccc2n1)C(=O)O", "TRUE"],
  ["CC(C)(CCCCOc1cc(-c2ccc(N)cc2)c2ccccc2n1)C(=O)O", "TRUE"],
  ["O=C(O)CCCCCCOc1cc(-c2ccccc2)c2ccccc2n1", "FALSE"],
  ["CC(C)(CCCCOc1cc(-c2ccc(Cl)cc2)c2ccccc2n1)c1nnn[nH]1", "TRUE"],
  ["CC(CCCCOc1cc(-c2ccccc2)c2ccccc2n1)C(=O)O (stereo not given)", "FALSE"],
  ["CC(C)(CCCCOc1cc(-c2ccccc2)c2cc(Cl)ccc2n1)C(=O)O", "FALSE"],
  ["COc1cccc(-c2cc(OCCCCC(C)(C)C(=O)O)nc3ccccc23)c1", "TRUE"],
  ["CC(C)(CCCCOc1cc(-c2ccc(C(F)(F)F)cc2)c2ccccc2n1)C(=O)O", "TRUE"],
  ["O=C(O)CCCCCOc1cc(-c2ccc(Cl)cc2)c2ccccc2n1", "TRUE"],
  ["CC(C)(CCCCOc1cc(-c2ccc(Cl)cc2)c2ccccc2n1)C(=O)O", "TRUE"],
  ["c1ccc(-c2cc(OCCCCCc3nnn[nH]3)nc3ccccc23)cc1", "FALSE"]
]}

Provenance of the data: BindingDB's records for doi:10.1021/jm00101a007
